Data origin: the NIST ThermoML archive (doi:10.1007/s10765-012-1371-1)

conditions: 283.15 K; 101 kPa; Liquid
MEASURED ATTRIBUTE: viscosity (mPa·s)

• CC(C)CCl = 0.5155
• CCC(C)Cl (stereo not given) = 0.4631
• CCCCOCC = 0.4796
• CCCCCl = 0.4993
• COC(C)(C)C = 0.3897

====

Attribute: viscosity
details: 298.15 K; 101 kPa; Liquid
MEASURED ATTRIBUTE: viscosity (mPa·s)

* COC(C)(C)C | 0.3327
* CC(C)CCl | 0.4296
* CCCCCl | 0.4214
* CCCCOCC | 0.399
* CCC(C)Cl (stereo not given) | 0.3993
